test.system: UniProt:P43220
method.notes: GLP-1R Activation - cAMP Assay
Assay type: cell-based
measurement.conditions: cAMP increase in CHO cells stably expressing GLP-1R; each compound run on one of the two cAMP assays (Assay 1 or Assay 2, not specified)
endpoint.name: pEC50
Here pEC50 is given on a logarithmic scale as minus log10 of the concentration in mol/L.

Example cases with answers are listed next.
1) CC1(C)COC[C@H]1n1c(Cc2c(F)cc(-c3ccnc(OCc4ccc(F)cc4)n3)c(F)c2F)nc2ccc(C(=O)O)cc21
9.34
2) CC1(C)COC[C@H]1n1c(Cc2cc(F)c(-c3cccc(OCc4cnc(-c5cnn(C(F)F)c5)cc4Cl)n3)cc2F)nc2ccc(C(=O)O)cc21
9.00
3) COCCn1c(Cc2cc(F)c(-c3cccc(OCc4ccc(-c5ccnn5C)cc4F)n3)cc2F)nc2ccc(C(=O)O)cc21
8.84
4) CO[C@H]1COC[C@H]1n1c(Cc2cc(F)c(-c3cccc(OCc4ccc(Cl)cc4F)n3)cc2F)nc2ccc(C(=O)O)cc21
9.30
5) COCCn1c(C(CO)c2cc(F)c(-c3cccc(OCc4ccc(C#N)cc4F)n3)cc2F)nc2ccc(C(=O)O)cc21 (stereo not shown)
7.50
6) Cc1cc(Cc2nc3c(F)cc(C(=O)O)cc3n2[C@@H]2COCC2(C)C)c(F)cc1-c1ccc(F)c(OCc2ccc(C#N)cc2F)n1
9.77

Entry CC1(C)COC[C@H]1n1c(Cc2cc(F)c(-c3cccc(OCc4c(F)cc(Cl)cc4F)n3)cc2F)nc2ccc(C(=O)O)cc21 [Example 489] has what pEC50?
9.47

Would you mind telling me what pEC50 value was observed for N#Cc1ccc(COc2cccc(-c3cc(F)c(Cc4nc5ccc(C(=O)O)cc5n4[C@@H]4COC[C@@H]4OCC(F)F)cc3F)n2)c(F)c1 (racemic) [Example 412] ?
9.34

What pEC50 value was documented for this compound, `COCCn1c(Cc2cc(F)c(-c3cc(O)cc(OCc4ccc(C#N)cc4F)n3)cc2F)nc2ccc(C(=O)O)cc21` ?
9.09

What does the data say about its pEC50? Entry: `CC1(C)COC[C@H]1n1c(Cc2cc(F)c(-c3ccc(F)c(OCc4cc(F)c(C#N)cc4F)n3)cc2F)nc2c(F)cc(C(=O)O)cc21`
10.66

Quick one: pEC50 of `COCCn1c(Cc2ccc(-c3cccc(OCc4ccc(C#N)cc4F)c3)nc2)nc2ccc(C(=O)O)cc21` ?
7.68

Recorded pEC50 for `COC(=O)N1Cc2ccc(COc3cccc(-c4cc(F)c(Cc5nc6c(F)cc(C(=O)O)cc6n5[C@@H]5COCC5(C)C)cc4F)n3)cc2C1` , please?
9.15

Item under review: N#Cc1ccc(COc2cccc(-c3cc(F)c(Cc4nc5ccc(C(=O)O)cc5n4CC4(C5CC5)CCCO4)cc3F)n2)c(F)c1 (stereo not shown) . Reported pEC50?
9.03

###

Each record here notes measured log10 EC50.
test.system: GLP-1R (Homo sapiens, UniProt P43220)
Sequence (P43220 24-463): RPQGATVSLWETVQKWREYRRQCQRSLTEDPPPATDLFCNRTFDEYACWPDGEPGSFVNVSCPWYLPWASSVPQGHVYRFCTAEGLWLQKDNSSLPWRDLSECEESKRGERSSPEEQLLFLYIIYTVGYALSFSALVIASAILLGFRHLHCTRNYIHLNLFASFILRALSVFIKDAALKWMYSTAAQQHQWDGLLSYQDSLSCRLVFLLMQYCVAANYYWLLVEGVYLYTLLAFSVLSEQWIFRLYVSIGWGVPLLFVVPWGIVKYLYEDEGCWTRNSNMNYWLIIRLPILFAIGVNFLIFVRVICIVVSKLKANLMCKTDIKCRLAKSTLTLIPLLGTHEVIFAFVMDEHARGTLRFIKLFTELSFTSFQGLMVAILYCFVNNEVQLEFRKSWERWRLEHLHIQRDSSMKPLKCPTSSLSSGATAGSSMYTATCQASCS
method.notes: GLP-1R Activation - cAMP Assay
Format: cell-based
measurement.conditions: cAMP increase in CHO cells stably expressing GLP-1R; each compound run on one of the two cAMP assays (Assay 1 or Assay 2, not specified)
Field: value | Transform: log10 | Quantity: EC50 | Unit: nM

1) COCCn1c(Cc2cc(F)c(-c3cccc(OCc4ccc(Cl)cc4)n3)cc2F)nc2c(F)cc(C(=O)O)cc21 [Example 386]
-1.03
2) CC1(C)COC[C@H]1n1c(Cc2c(F)cc(-c3cccc(OCc4ccc(C#N)cc4)n3)c(F)c2F)nc2ccc(C(=O)O)cc21 [Example 245]
-1.29
3) CC(F)(F)c1ccc(COc2cccc(-c3cc(F)c(Cc4nc5ccc(C(=O)O)cc5n4[C@@H]4COCC4(C)C)cc3F)n2)nc1 [Example 195]
-0.27

Under GLP-1R (Homo sapiens, UniProt P43220): log10 EC50 value of Cc1c(-c2cccc(OCc3ccc(C#N)cc3F)n2)ccc(Cc2nc3ccc(C(=O)O)cc3n2C[C@@H]2CCO2)c1F [Example 146] ?
-0.42

###

Recorded EC50 by entry
test.system: GLP-1R (Homo sapiens, UniProt P43220)
method.notes: GLP-1R Activation - cAMP Assay
Type: cell-based
measurement.conditions: cAMP increase in CHO cells stably expressing GLP-1R; each compound run on one of the two cAMP assays (Assay 1 or Assay 2, not specified)
Reply with a number, then the unit it belongs to.

Worked cases, EC50 given:
1. CC1(C)COC[C@H]1n1c(Cc2cc(F)c(-c3cccc(OCc4ncc(Cl)cc4F)n3)cc2F)nc2ccc(C(=O)O)cc21 (single isomer, unassigned) [Example 289A]
0.122 nM
2. CC1(C)COC[C@H]1n1c(Cc2cc(F)c(-c3cccc(OCc4ccc(Cl)cc4)n3)cc2F)nc2ccc(C(=O)O)nc21
0.519 nM
3. COCCn1c(Cc2cc(F)c(-c3cc(C(F)F)cc(OCc4ccc(C#N)cc4F)n3)cc2F)nc2ccc(C(=O)O)cc21
4.88 nM
4. CC1(C)COC[C@H]1n1c(Cc2c(F)cc(-c3ccc(F)c(OCc4ccc(Cl)cc4F)n3)c(F)c2F)nc2c(F)cc(C(=O)O)cc21
0.016 nM
5. Cc1ccc(COc2cccc(-c3cc(F)c(Cc4nc5ccc(C(=O)O)cc5n4[C@@H]4COCC4(C)C)cc3F)n2)c(F)c1
0.209 nM

Entry CC1(C)COCC1n1c(Cc2cc(F)c(-c3cccc(OCc4ccc(C(F)F)cc4F)n3)cc2F)nc2c(F)cc(C(=O)O)cc21 (stereo not drawn) has what EC50?
0.242 nM

###

test.system: GLP-1R (Homo sapiens, UniProt P43220)
method.notes: GLP-1R Activation - cAMP Assay
Type: cell-based
measurement.conditions: cAMP increase in CHO cells stably expressing GLP-1R; each compound run on one of the two cAMP assays (Assay 1 or Assay 2, not specified)
EC50 reference
Write the number in nM without appending the unit.

Would you please look over these solved cases?
1) CO[C@H](C)Cn1c(Cc2cc(F)c(-c3cccc(OCc4cc(F)c(Cl)cc4F)n3)cc2F)nc2c(F)cc(C(=O)O)cc21 [Example 353]
1.18
2) Cc1cc(Cc2nc3ccc(C(=O)O)cc3n2[C@@H]2COCC2(C)C)c(Cl)cc1-c1cccc(OCc2cnc(-n3ccnn3)cc2Cl)n1 [Example 156]
0.064
3) COC(C)(C)Cn1c(Cc2cc(F)c(-c3cccc(OCc4ccc(Cl)cc4F)n3)cc2F)nc2ccc(C(=O)O)cc21 [Example 510]
0.509
4) CC1(C)COC[C@H]1n1c(Cc2cc(F)c(-c3cccc(OCc4ccc(C(F)(F)F)nc4)n3)cc2F)nc2ccc(C(=O)O)cc21 [Example 425]
0.494
5) CC1(C)COC[C@H]1n1c(Cc2c(F)cc(-c3ccc(F)c(OCc4cnc(-n5ccnn5)cc4Cl)n3)c(F)c2F)nc2ccc(C(=O)O)cc21 [Example 159]
0.043

Can you look up EC50 on GLP-1R (Homo sapiens, UniProt P43220) for COCCn1c(Cc2cc(F)c(-c3cccc(OCc4ccc(C#N)cc4F)n3)cc2F)nc2c(-c3cncnc3)cc(C(=O)O)cc21 [Example 55] ?
25.8

GLP-1R (Homo sapiens, UniProt P43220) / EC50 / CC1(C)COCC1n1c(Cc2cc(F)c(-c3cccc(OCc4ccc(Cl)nc4)n3)cc2F)nc2ccc(C(=O)O)cc21 (stereo not shown) [Example 92] : value?
0.13

I'm curious: which EC50 was measured for COCCn1c(Cc2cc(F)c(-c3cccc(OCc4ccc(-c5cc(C(F)(F)F)nn5C)cc4F)n3)cc2F)nc2ccc(C(=O)O)cc21 [Example 102] tested on GLP-1R (Homo sapiens, UniProt P43220)?
22.8

So what EC50 did CC1(C)COC[C@H]1n1c(Cc2cc(F)c(-c3ccnc(OCc4ccc(C#N)cc4F)n3)cc2F)nc2c(Cl)cc(C(=O)O)cc21 [Example 129] get with GLP-1R (Homo sapiens, UniProt P43220)?
0.271

###

test.system: GLP-1R (Homo sapiens, UniProt P43220)
method.notes: GLP-1R Activation - cAMP Assay
Format: cell-based
measurement.conditions: cAMP increase in CHO cells stably expressing GLP-1R; each compound run on one of the two cAMP assays (Assay 1 or Assay 2, not specified)
endpoint.name: pEC50
Worth noting: pEC50 values are minus log10 of concentrations stated in mol/L.

Reference set (10 entries):
1) COCCn1c(Cc2cc(F)c(-c3cccc(OCc4ccc(C(F)(F)F)nc4C)n3)cc2F)nc2ccc(C(=O)O)cc21
8.59
2) CC1(C)COC[C@@H]1n1c(Cc2ccc(-c3cccc(OCc4ccc(C#N)cc4F)n3)cc2F)nc2ccc(C(=O)O)cc21 (single isomer, unassigned) [Example 380]
10.02
3) COCCn1c(Cc2cc(F)c(-c3cccc(OCc4ccc(-c5cnn(C(F)F)c5)nc4)n3)cc2F)nc2ccc(C(=O)O)cc21
8.60
4) CN(C)C(=O)[C@@H]1COC[C@@H]1n1c(Cc2cc(F)c(-c3cccc(OCc4ccc(C#N)cc4F)n3)cc2F)nc2ccc(C(=O)O)cc21 (racemic)
7.00
5) CC1(C)COC[C@H]1n1c(Cc2cc(F)c(-c3ccc(F)c(OCc4ccc(F)cc4)n3)cc2F)nc2ccc(C(=O)O)cc21
10.51
6) O=C(O)c1ccc2nc(Cc3cc(F)c(-c4cccc(OCc5ccc(Cl)cc5F)n4)cc3F)n(C3COC4CC3C4)c2c1 (stereo in doubt) [Example 573]
9.73
7) CC1(C)COC[C@H]1n1c(Cc2cc(F)c(-c3nccc(OCc4ccc(C#N)cc4F)n3)cc2F)nc2c(F)cc(C(=O)O)cc21
9.72
8) CC1(C)COC[C@H]1n1c(Cc2cc(F)c(-c3cccc(OCc4ccc(C#N)cc4)n3)cc2F)nc2cc(Cl)c(C(=O)O)cc21
9.26
9) CC1(C)COC[C@H]1n1c(Cc2cc(F)c(-c3nc(OCc4ccc(C#N)cc4F)ccc3F)cc2F)nc2c(F)cc(C(=O)O)cc21
9.91
10) CC1(C)COC[C@H]1n1c(Cc2cc(F)c(-c3cccc(OCc4ccc(C#N)cc4)n3)cc2F)nc2cc(F)c(C(=O)O)cc21
9.70

Find the recorded pEC50 belonging to `CC1(C)COC[C@H]1n1c(Cc2cc(F)c(-c3cccc(OCc4ccc(C#N)cc4Cl)n3)cc2F)nc2ccc(C(=O)O)cc21` and report it.
10.02

GET /values?readout=pEC50&item= `COCCn1c(Cc2c(F)cc(-c3cccc(OCc4cnc(-n5ccnn5)cc4Cl)n3)c(F)c2F)nc2ccc(C(=O)O)cc21`
9.97

# pEC50 lookup, item `Cc1cc(F)c(COc2cccc(-c3cc(F)c(Cc4nc5ccc(C(=O)O)cc5n4[C@@H]4COCC4(C)C)cc3F)n2)cc1F`
9.48

For the compound shown here, `COCCn1c(Cc2cc(F)c(-c3cccc(OCc4ccc(C#N)cc4F)n3)cc2Cl)nc2c(F)cc(C(=O)O)cc21` , give the reported pEC50.
10.13

Reported pEC50, compound `COc1cnccc1COc1cccc(-c2cc(F)c(Cc3nc4ccc(C(=O)O)cc4n3[C@@H]3COCC3(C)C)cc2F)n1` : ____
10.70

For the compound `CC1(C)COC[C@H]1n1c(Cc2cc(F)c(-c3cccc(OCc4ccc(Cl)cc4F)n3)cc2F)nc2c(F)cc(C(=O)O)cc21` , what pEC50 is on record?
10.55

What value of pEC50 has been reported for the following compound? COC[C@@H]1COC[C@@H]1n1c(Cc2cc(F)c(-c3cccc(OCc4ccc(C#N)cc4F)n3)cc2F)nc2ccc(C(=O)O)cc21 (single isomer, unassigned) [Example 176B]
9.13

Find the recorded pEC50 belonging to CC1(C)COC[C@@H]1n1c(Cc2ccc(-c3cccc(OCc4ccc(C#N)cc4F)n3)cc2F)nc2ccc(C(=O)O)cc21 (single isomer, unassigned) [Example 379] and report it.
9.24

# lookup: pEC50 of `N#Cc1ccc(COc2cccc(-c3cc(F)c(Cc4nc5ccc(C(=O)O)cc5n4[C@H]4COC[C@H]4OCC(F)F)cc3F)n2)c(F)c1`
9.36

Return reported pEC50; argument: `Cc1ccc(COc2cccc(-c3cc(F)c(Cc4nc5ccc(C(=O)O)cc5n4[C@@H]4COCC4(C)C)cc3F)n2)c(F)n1`
10.23

Can you look up the measured pEC50 of `CC1(C)COC[C@H]1n1c(Cc2cc(F)c(-c3cccc(OCc4ccc5c(c4)CN(S(C)(=O)=O)C5)n3)cc2F)nc2c(F)cc(C(=O)O)cc21` for me?
9.90

Item CNC(=O)[C@@H]1COC[C@@H]1n1c(Cc2cc(F)c(-c3cccc(OCc4ccc(C#N)cc4F)n3)cc2F)nc2ccc(C(=O)O)cc21 (racemic) has what recorded pEC50?
7.81

Consider the compound shown here: `COCCn1c(Cc2cc(F)c(-c3cccc(OCc4ccc(C)nc4C)n3)cc2F)nc2ccc(C(=O)O)cc21` What is its recorded pEC50?
8.12

Look up pEC50 for this compound: `CC1(C)COC[C@H]1n1c(Cc2cc(F)c(-c3cccc(OCc4ccc(Cl)cc4C(F)(F)F)n3)cc2F)nc2ccc(C(=O)O)cc21`
8.80

Data origin, for the record: patent US12570642B2
